- Target entity: Fatty acid-binding protein 5 (Homo sapiens)
- Sequence (Q01469 whole entry): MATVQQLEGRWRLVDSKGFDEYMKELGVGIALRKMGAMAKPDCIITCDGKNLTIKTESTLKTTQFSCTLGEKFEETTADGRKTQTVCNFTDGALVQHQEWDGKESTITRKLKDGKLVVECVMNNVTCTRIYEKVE
- Assay protocol: Displacement of 1,8-ANS from human recombinant full length N-terminal his-tagged FABP5 expressed in Escherichia coli BL21 (DE3) incubated for 3 mins by fluorescence based assay

Smiles structure: CCCCCCCCOc1ccc(S(=O)(=O)Nc2ccc(F)c(C(=O)O)c2)c2ccccc12
Target entity: Fatty acid-binding protein 5 (Homo sapiens)
Endpoint unit: µM
IC50: 4.19
//
Smiles structure: O=C(O)c1cc(NS(=O)(=O)c2ccc(OCC3CCCCC3)c3ccccc23)ccc1F
Target entity: Fatty acid-binding protein 5 (Homo sapiens)
Endpoint unit: µM
IC50: 8.12
//
Smiles structure: O=C(O)c1cc(NS(=O)(=O)c2ccc(OCCCC3CCCCC3)c3ccccc23)ccc1F
Target entity: Fatty acid-binding protein 5 (Homo sapiens)
Endpoint unit: µM
IC50: 3.63

* * *

- System: 3T3-L1
- Assay protocol: Cytotoxicity against mouse 3T3L1 cells assessed as reduction in cell viability at 30 to 60 uM incubated for 24 hrs by MTT assay
- Type: cell-based
- Applied conditions: 3t3-l1, 24 h

Smiles structure: Cc1c(Cl)cccc1OCc1cc(=O)n2nc(-c3ccccc3)nc2[nH]1
Activity: Toxic
--
Smiles structure: O=C(O)c1cc(NS(=O)(=O)c2ccc(OCCC3CCCCC3)c3ccccc23)ccc1F
Activity: Non-Toxic
--
Smiles structure: COc1ccc(S(=O)(=O)Nc2ccc(F)c(C(=O)O)c2)c2ccccc12
Activity: Non-Toxic
--
Smiles structure: COc1c(-c2ccc(F)c(Cl)c2)cc(S(=O)(=O)Nc2ccc(F)c(C(=O)O)c2)c2ccccc12
Activity: Non-Toxic

* * *

pIC50: −log10 of the molar value.
Assay system Fatty acid-binding protein, heart (Homo sapiens); read-out recorded as pIC50.
Endpoint: pIC50

Smiles structure: O=C(O)c1cc(NS(=O)(=O)c2ccc(OCCC3CCCCC3)c3ccccc23)ccc1F
Target entity: Fatty acid-binding protein, heart (Homo sapiens)
Sequence (P05413 whole entry): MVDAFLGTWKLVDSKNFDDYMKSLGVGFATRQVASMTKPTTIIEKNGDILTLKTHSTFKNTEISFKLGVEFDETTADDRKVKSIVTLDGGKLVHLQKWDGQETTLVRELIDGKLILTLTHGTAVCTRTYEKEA
Endpoint: pIC50
Value: 4.25
--
Smiles structure: COc1c(-c2ccc(F)c(Cl)c2)cc(S(=O)(=O)Nc2ccc(F)c(C(=O)O)c2)c2ccccc12
Target entity: Fatty acid-binding protein, heart (Homo sapiens)
Endpoint: pIC50
Value: 4.33

* * *

# log10(IC50) listing for each entry below
- Target entity: Fatty acid-binding protein, adipocyte (Homo sapiens)
- Assay protocol: Displacement of 1,8-ANS from human recombinant full length N-terminal his-tagged FABP4 expressed in Escherichia coli BL21 (DE3) incubated for 3 mins by fluorescence based assay
Endpoint: log10(IC50) (log10 of the value in nM)

Smiles structure: COc1c(-c2ccoc2)cc(S(=O)(=O)Nc2ccc(F)c(C(=O)O)c2)c2ccccc12
log10(IC50): 3.55

Smiles structure: CCOc1ccc(S(=O)(=O)Nc2ccc(F)c(C(=O)O)c2)c2ccccc12
log10(IC50): 3.42

Smiles structure: O=C(O)c1cc(NS(=O)(=O)c2ccc(OCC34CC5CC(CC(C5)C3)C4)c3ccccc23)ccc1F
log10(IC50): 4.17

Smiles structure: COc1c(-c2cccc(O)c2)cc(S(=O)(=O)Nc2ccc(F)c(C(=O)O)c2)c2ccccc12
log10(IC50): 3.28

Smiles structure: COc1c(-c2ccncc2)cc(S(=O)(=O)Nc2ccc(F)c(C(=O)O)c2)c2ccccc12
log10(IC50): 3.55

Smiles structure: O=C(O)c1cc(NS(=O)(=O)c2ccc(OC3CCCCCC3)c3ccccc23)ccc1F
log10(IC50): 3.37

Smiles structure: CCCCCCCCCCCCOc1ccc(S(=O)(=O)Nc2ccc(F)c(C(=O)O)c2)c2ccccc12
log10(IC50): 4.39

Smiles structure: CCCCCOc1ccc(S(=O)(=O)Nc2ccc(F)c(C(=O)O)c2)c2ccccc12
log10(IC50): 3.48

Smiles structure: CCCCCCOc1ccc(S(=O)(=O)Nc2ccc(F)c(C(=O)O)c2)c2ccccc12
log10(IC50): 3.39

Smiles structure: O=C(O)c1cc(NS(=O)(=O)c2ccc(OCCCC3CCCCC3)c3ccccc23)ccc1F
log10(IC50): 3.56

Smiles structure: O=C(O)c1cc(NS(=O)(=O)c2ccc(OCCC3CCCCC3)c3ccccc23)ccc1F
log10(IC50): 3.29

Smiles structure: COc1c(-c2ccc(F)cc2)cc(S(=O)(=O)Nc2ccc(F)c(C(=O)O)c2)c2ccccc12
log10(IC50): 3.24

Smiles structure: CCCCCCCOc1ccc(S(=O)(=O)Nc2ccc(F)c(C(=O)O)c2)c2ccccc12
log10(IC50): 3.36

Smiles structure: COc1c(-c2ccc(O)cc2)cc(S(=O)(=O)Nc2ccc(F)c(C(=O)O)c2)c2ccccc12
log10(IC50): 3.08

Smiles structure: COc1c(-c2ccc(F)c(Cl)c2)cc(S(=O)(=O)Nc2ccc(F)c(C(=O)O)c2)c2ccccc12
log10(IC50): 3.20

Smiles structure: O=C(O)c1cc(NS(=O)(=O)c2ccc(OCC3CCCCC3)c3ccccc23)ccc1F
log10(IC50): 3.38

Smiles structure: COc1c(-c2ccc(Cl)c(Cl)c2)cc(S(=O)(=O)Nc2ccc(F)c(C(=O)O)c2)c2ccccc12
log10(IC50): 3.64

Smiles structure: O=C(O)c1cc(NS(=O)(=O)c2ccc(OC3CCCCC3)c3ccccc23)ccc1F
log10(IC50): 3.34

Smiles structure: COc1c(-c2ccc(F)c(F)c2)cc(S(=O)(=O)Nc2ccc(F)c(C(=O)O)c2)c2ccccc12
log10(IC50): 3.47

* * *

- Tested on: RAW264.7
- Assay protocol: Cytotoxicity against mouse RAW264.7 cells assessed as reduction in cell viability at 30 to 60 uM incubated for 24 hrs by MTT assay
- Type: cell-based
- Applied conditions: raw264.7, 24 h
Endpoint: Activity

Smiles structure: COc1ccc(S(=O)(=O)Nc2ccc(F)c(C(=O)O)c2)c2ccccc12
Value: Non-Toxic
--
Smiles structure: O=C(O)c1cc(NS(=O)(=O)c2ccc(OCCC3CCCCC3)c3ccccc23)ccc1F
Value: Non-Toxic
--
Smiles structure: COc1c(-c2ccc(F)c(Cl)c2)cc(S(=O)(=O)Nc2ccc(F)c(C(=O)O)c2)c2ccccc12
Value: Non-Toxic
--
Smiles structure: Cc1c(Cl)cccc1OCc1cc(=O)n2nc(-c3ccccc3)nc2[nH]1
Value: Toxic

* * *

- Target entity: Fatty acid-binding protein, adipocyte (Homo sapiens, UniProt P15090)
- Sequence (P15090 whole entry): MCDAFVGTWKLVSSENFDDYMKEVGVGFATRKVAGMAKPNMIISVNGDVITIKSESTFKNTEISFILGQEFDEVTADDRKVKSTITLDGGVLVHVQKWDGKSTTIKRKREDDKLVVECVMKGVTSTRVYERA
- Assay protocol: Displacement of 1,8-ANS from human recombinant full length N-terminal his-tagged FABP4 expressed in Escherichia coli BL21 (DE3) incubated for 3 mins by fluorescence based assay
pIC50: −log10 of the molar value.
Endpoint: pIC50

Smiles structure: COc1c(-c2cccc(N)c2)cc(S(=O)(=O)Nc2ccc(F)c(C(=O)O)c2)c2ccccc12
Value: 5.77
//
Smiles structure: COc1c(-c2ccccc2)cc(S(=O)(=O)Nc2ccc(F)c(C(=O)O)c2)c2ccccc12
Value: 5.92
//
Smiles structure: CCCCCCCCCCOc1ccc(S(=O)(=O)Nc2ccc(F)c(C(=O)O)c2)c2ccccc12
Value: 5.33
//
Smiles structure: O=C(O)c1cc(NS(=O)(=O)c2ccc(OCc3ccccc3)c3ccccc23)ccc1F
Value: 5.50
//
Smiles structure: CCCCCCCCOc1ccc(S(=O)(=O)Nc2ccc(F)c(C(=O)O)c2)c2ccccc12
Value: 5.39

* * *

- Target entity: UniProt Q01469
- Assay protocol: Displacement of 1,8-ANS from human recombinant full length N-terminal his-tagged FABP5 expressed in Escherichia coli BL21 (DE3) incubated for 3 mins by fluorescence based assay
pIC50: −log10 of the molar value.
Endpoint: pIC50

Smiles structure: O=C(O)c1cc(NS(=O)(=O)c2ccc(OC3CCCCC3)c3ccccc23)ccc1F
Target entity: UniProt Q01469
Value: 5.12
//
Smiles structure: O=C(O)c1cc(NS(=O)(=O)c2ccc(OCC34CC5CC(CC(C5)C3)C4)c3ccccc23)ccc1F
Target entity: UniProt Q01469
Value: 5.34
//
Smiles structure: CCCCCCCCCCOc1ccc(S(=O)(=O)Nc2ccc(F)c(C(=O)O)c2)c2ccccc12
Target entity: UniProt Q01469
Value: 5.35
//
Smiles structure: O=C(O)c1cc(NS(=O)(=O)c2ccc(OCCC3CCCCC3)c3ccccc23)ccc1F
Target entity: UniProt Q01469
Value: 5.31
//
Smiles structure: COc1c(-c2ccc(F)cc2)cc(S(=O)(=O)Nc2ccc(F)c(C(=O)O)c2)c2ccccc12
Target entity: UniProt Q01469
Value: 5.00
//
Smiles structure: CCCCCCCOc1ccc(S(=O)(=O)Nc2ccc(F)c(C(=O)O)c2)c2ccccc12
Target entity: UniProt Q01469
Value: 5.56
//
Smiles structure: CCCCCOc1ccc(S(=O)(=O)Nc2ccc(F)c(C(=O)O)c2)c2ccccc12
Target entity: UniProt Q01469
Value: 5.08
//
Smiles structure: O=C(O)c1cc(NS(=O)(=O)c2ccc(OC3CCCCCC3)c3ccccc23)ccc1F
Target entity: UniProt Q01469
Value: 5.48
//
Smiles structure: CCCCCCOc1ccc(S(=O)(=O)Nc2ccc(F)c(C(=O)O)c2)c2ccccc12
Target entity: UniProt Q01469
Value: 5.38

Value source: ChEMBL document CHEMBL4396930
